Below are pIC50 values recorded for Prostaglandin G/H synthase 1 (Homo sapiens, UniProt P23219).
Kindly note that pIC50 refers to -log10 of the concentration in mol/L and answer with the value alone.

Report pIC50 for `CCCCC[C@H](O)CC(=O)CCc1ccc(O)c(OC)c1` please.
3.89

Value lookup for pIC50; key = `CCc1ccc(-c2ccc(O)c(OC)c2)o1`
4.89

Find the recorded pIC50 belonging to `CCCCCCc1ccc(-c2ccc(O)c(OC)c2)o1` and report it.
4.21

----------
Parameter: pIC50. Scope: all listed entries.
Biological target: Polyunsaturated fatty acid 5-lipoxygenase (Homo sapiens)
Sequence (P09917 whole entry): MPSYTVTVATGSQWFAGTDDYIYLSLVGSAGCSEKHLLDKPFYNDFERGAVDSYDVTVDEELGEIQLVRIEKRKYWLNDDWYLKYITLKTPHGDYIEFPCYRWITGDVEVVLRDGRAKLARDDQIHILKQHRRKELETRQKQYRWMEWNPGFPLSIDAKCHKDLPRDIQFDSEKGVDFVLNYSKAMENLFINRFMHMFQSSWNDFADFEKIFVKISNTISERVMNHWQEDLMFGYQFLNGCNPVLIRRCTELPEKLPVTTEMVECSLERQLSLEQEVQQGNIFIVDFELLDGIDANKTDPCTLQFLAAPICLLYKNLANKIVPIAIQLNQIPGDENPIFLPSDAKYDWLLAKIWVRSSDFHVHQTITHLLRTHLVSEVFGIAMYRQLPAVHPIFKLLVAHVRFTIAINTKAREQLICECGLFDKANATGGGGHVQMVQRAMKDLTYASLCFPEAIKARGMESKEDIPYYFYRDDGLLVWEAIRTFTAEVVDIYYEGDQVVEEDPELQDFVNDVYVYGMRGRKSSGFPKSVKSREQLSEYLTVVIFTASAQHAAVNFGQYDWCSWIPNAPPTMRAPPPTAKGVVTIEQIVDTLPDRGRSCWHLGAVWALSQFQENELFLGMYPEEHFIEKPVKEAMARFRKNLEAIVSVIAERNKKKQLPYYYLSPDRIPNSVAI
To interpret pIC50, take it as minus log10 of a concentration measured in moles per litre.

Identify the measured pIC50 of `CCc1ccc(-c2ccc(O)c(OC)c2)o1` for Polyunsaturated fatty acid 5-lipoxygenase (Homo sapiens).
6.28

Recall the recorded pIC50 for CCCCC/C=C/C(=O)CCc1ccc(O)c(OC)c1 [SHOGAOL] with Polyunsaturated fatty acid 5-lipoxygenase (Homo sapiens) and state it.
5.13

# returns recorded pIC50 (system: Polyunsaturated fatty acid 5-lipoxygenase (Homo sapiens)) for `CCCCCCc1ccc(-c2ccc(O)c(OC)c2)o1`
5.59

----------
# reported IC50; entries follow
Target: Prostaglandin G/H synthase 2 (Homo sapiens, UniProt P35354)
Sequence (P35354 whole entry): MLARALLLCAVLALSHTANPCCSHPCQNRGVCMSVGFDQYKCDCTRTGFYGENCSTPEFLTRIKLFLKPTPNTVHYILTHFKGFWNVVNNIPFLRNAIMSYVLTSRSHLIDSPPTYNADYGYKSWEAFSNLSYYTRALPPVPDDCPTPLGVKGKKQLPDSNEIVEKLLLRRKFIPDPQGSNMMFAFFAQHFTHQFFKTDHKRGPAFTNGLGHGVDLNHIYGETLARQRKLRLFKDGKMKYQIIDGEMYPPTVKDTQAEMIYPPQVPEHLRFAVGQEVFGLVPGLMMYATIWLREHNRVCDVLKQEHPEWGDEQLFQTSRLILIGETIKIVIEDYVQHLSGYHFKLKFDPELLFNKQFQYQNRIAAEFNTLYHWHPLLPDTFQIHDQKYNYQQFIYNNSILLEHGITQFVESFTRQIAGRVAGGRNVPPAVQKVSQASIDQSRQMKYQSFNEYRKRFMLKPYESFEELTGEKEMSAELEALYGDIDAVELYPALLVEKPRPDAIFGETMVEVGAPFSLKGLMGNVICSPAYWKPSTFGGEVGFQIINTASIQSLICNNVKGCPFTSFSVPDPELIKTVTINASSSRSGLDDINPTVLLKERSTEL
Respond with the bare value in µM.

smiles notation: CCCCCCc1ccc(-c2ccc(O)c(OC)c2)o1
IC50 [µM]: 8.4

Quick one: IC50 of `CCc1ccc(-c2ccc(O)c(OC)c2)o1` ?
9.4
